# System: PfAP2-LT AP2 domain (GST-tagged)
# measurement.description: gcPBM binding intensity (ln(normalized median fluorescence intensity)); higher = stronger DNA binding
The full ranking holds about 25,000 sequences; the median of “ln(normalized median fluorescence intensity)” is about 8.9, and the highest 2% start at about 10. This is one part of a sample in which the highest values are shown more often than they occur.
Response key: Satisfied means gcPBM binding intensity (ln) >= 10; Not satisfied means gcPBM binding intensity (ln) < 10.

Evaluate ATTATGTTTCTTTTTTTTTTTAAAGGATGTCTTTTT [CACACA_negctrl_site974] : gcPBM binding intensity (ln) at minimum 10? Not satisfied

Now consider CACACCCACCAACACACACACACACCCACCCATATA [CACACA_site366] and answer again. Satisfied

Now consider AGGCTATAATACCATACACACATTTATAAAATAACA [CACACA_site6990] and answer again. Not satisfied

Now consider TTTTTTTTTTTTTTTTTTTTTTTCTTTATTTTTTTT [CACACA_negctrl_site703] and answer again. Not satisfied

Now consider AATAATAAATATATATATATATATATATATATATTT [CACACA_negctrl_site786] and answer again. Not satisfied

Now consider TTAAATAGCTGTAATTGTACAAATAAATACATAAAT [XGTACX_site3097] and answer again. Not satisfied

Now consider AACAGACATAGAAACACACATACATACATACATACA [CACACA_site2479] and answer again. Not satisfied

Now consider TTTTTAAAAAAGATAAGCGAAAGAATTAATTTTTAA [GTGCAC_negctrl_site197] and answer again. Not satisfied

Now consider ACATCAAGCAGACACACACACACACCCACCCACCGA [CACACA_site371] and answer again. Satisfied

Now consider AAATAGGGAATTTATGCACACAGTTAAGGGGGAAAA [CACACA_site2071] and answer again. Not satisfied

====

# System: PfAP2-LT AP2 domain (GST-tagged)
# measurement.description: gcPBM binding intensity (ln(normalized median fluorescence intensity)); higher = stronger DNA binding
Over roughly 25,000 sequences, “ln(normalized median fluorescence intensity)” has its median near 8.9; the highest 2% begin near 10. The sample holds the highest values, similar sequences and a random draw of the others, so the mix is not that of the screen.
Response key: Fulfilled means gcPBM binding intensity (ln) >= 10; Not fulfilled means gcPBM binding intensity (ln) < 10.

Evaluate AATTTGATTATAAATTGTACATATATATATTAAAAG [XGTACX_site5461] : gcPBM binding intensity (ln) at minimum 10? Not fulfilled

Now consider TACACAAGCAGACACACACACATATATATATATATA [CACACA_site1270] and answer again. Fulfilled

Now consider TAAAAGAAATAATATACACACATATATAAAAATAAA [CACACA_site1329] and answer again. Not fulfilled

Now consider CATACACCCCAACACACACACACACCCATATATAAT [CACACA_site8097] and answer again. Fulfilled

====

For each of the sequences below, state its gcPBM binding intensity (ln).
# Tested on: PfAP2-LT AP2 domain (GST-tagged)
# measurement.description: gcPBM binding intensity (ln(normalized median fluorescence intensity)); higher = stronger DNA binding
Over roughly 25,000 sequences, “ln(normalized median fluorescence intensity)” has its median near 8.9; the highest 2% begin near 10. This excerpt belongs to a sample that is enriched for the highest values.
// response body must contain only the number

GET /values?readout=gcPBM binding intensity (ln)&item= GGGCATATAATATAAAGTACAGGACTATAAAAATAT [XGTACX_site4481] 8.86

Now consider TACAATAAGGATAAGTGTACATATGTGCATACATAT [XGTACX_site7188] and answer again. 8.96

Now consider AAATAAATACTAGGCACACACACATATATATATATA [CACACA_site2079] and answer again. 10.1

Now consider ATGTAGATAAAACGTGTGCACATGTTTTTTGTTATT and answer again. 10.3

Now consider ACCATTTGTAGGTAAACACACATTATTATTAATATC [CACACA_site2635] and answer again. 8.93

Now consider ATTTTTTTTATTCAATGTACTTTTTTTTATATATAT [XGTACX_site4978] and answer again. 8.8

Now consider CAAACCCACGGACACACACACACAAAAATGATTAAA [CACACA_site5365] and answer again. 9.71

Now consider AATTAAATTACTTATACACACATAAAATGGGTGTAT [CACACA_site4703] and answer again. 8.97

Now consider TTTTTTTTTTTTTGTGCATGTAGATTTATTGTTATA [TGCATGCA_site582] and answer again. 8.79

Now consider TTTGCCCAAAAAGGTACACACCACAATGTACATAAA [CACACA_site4599] and answer again. 8.85

Now consider TAAGTTTGTCAATCAACACACACCTATTTATTATAT [CACACA_site3919] and answer again. 9.11

Now consider TATTTTTTTGTGTTTGGTACACACGTTATAAAAAAT [XGTACX_site2655] and answer again. 8.8

Now consider CTCCACAAACAAATCGCACACCCAACCCAACATATA [CACACA_site2650] and answer again. 9.68

Now consider AAGAATACACCACGCACACACACTTGAGAAAAAATA [CACACA_site3828] and answer again. 9.96

Now consider GAATTATATACTTATTGTACAAAAAAAAAAAAAAAA [XGTACX_site3193] and answer again. 8.36

Now consider ACAAGAATACACCACGCACACACACTAGAGAAAAAA [CACACA_site9276] and answer again. 10.1

Now consider ATGTAATGAAACATTGCACACATATAATAATATAAT [CACACA_site8402] and answer again. 9.31

Now consider AACAAACACGGACACACACACACACTAGAATGATTA [CACACA_site5364] and answer again. 10.2

Now consider AATAAAATAATAGGCACACATATATATATATATTAT [CACACA_site273] and answer again. 9.2

Now consider AACTATTACTTTCTTTCACACATTTTTTTTTTTTTT [CACACA_site5355] and answer again. 8.94
